target: T1, cynomolgus BCMA, on transiently transfected 293T cells (cynomolgus (Macaca fascicularis), UniProt Q02223 1-184 (human entry)); experiment: FACS
T1 construct: also called cyno BCMA
T1 sequence (Q02223 other isoform, or with tags, fused parts or gaps): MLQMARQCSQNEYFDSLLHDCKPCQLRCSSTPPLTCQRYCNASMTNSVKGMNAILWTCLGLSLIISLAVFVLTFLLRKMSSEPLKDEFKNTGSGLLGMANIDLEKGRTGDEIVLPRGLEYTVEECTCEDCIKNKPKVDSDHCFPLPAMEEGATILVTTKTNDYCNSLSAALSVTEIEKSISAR
Exercise: state measured MFI for each of the binders provided.
Numbers only.

Exam item: Returns the measured MFI for the input binder. Input: 33C7 (antibody, V domains shown, Tested as purified hybridoma IgG2 or IgG4; also called Ab-11; 33C7_HC#1) VH: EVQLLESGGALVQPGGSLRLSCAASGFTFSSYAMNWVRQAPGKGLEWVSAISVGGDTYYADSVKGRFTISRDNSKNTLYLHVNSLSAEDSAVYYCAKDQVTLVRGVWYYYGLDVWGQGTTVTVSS VL: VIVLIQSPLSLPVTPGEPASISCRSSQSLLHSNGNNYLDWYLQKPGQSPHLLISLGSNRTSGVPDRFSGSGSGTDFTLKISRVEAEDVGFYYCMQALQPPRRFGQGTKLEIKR
Marked response: 238000

Exam item: Returns the measured MFI for the input binder. Input: 35D2 (antibody, V domains shown, also called Ab-15; 35D2.1) VH: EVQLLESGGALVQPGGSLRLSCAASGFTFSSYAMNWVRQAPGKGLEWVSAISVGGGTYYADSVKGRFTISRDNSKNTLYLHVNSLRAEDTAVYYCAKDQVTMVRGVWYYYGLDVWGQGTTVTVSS VL: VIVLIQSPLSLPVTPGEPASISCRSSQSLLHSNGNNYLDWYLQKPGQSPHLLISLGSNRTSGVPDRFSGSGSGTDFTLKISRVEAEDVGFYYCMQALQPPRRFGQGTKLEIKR
Marked response: 198000

Exam item: Returns the measured MFI for the input binder. Input: 37B2 (antibody, V domains shown, Tested as purified hybridoma IgG2 or IgG4; also called Ab-16; 37B2.1) VH: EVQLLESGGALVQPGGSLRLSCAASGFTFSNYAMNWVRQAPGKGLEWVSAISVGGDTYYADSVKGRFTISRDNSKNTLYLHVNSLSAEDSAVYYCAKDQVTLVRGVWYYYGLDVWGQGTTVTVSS VL: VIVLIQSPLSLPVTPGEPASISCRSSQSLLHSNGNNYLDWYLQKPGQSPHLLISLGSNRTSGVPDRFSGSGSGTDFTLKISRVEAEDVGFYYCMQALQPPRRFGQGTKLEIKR
Marked response: 136000

For each of the binders below, state MFI.
1. 32B5 (antibody, V domains shown, 32B5.1 was purified hybridoma IgG2 or IgG4; later converted to human IgG1; also called Ab-10; 32B5.1) VH: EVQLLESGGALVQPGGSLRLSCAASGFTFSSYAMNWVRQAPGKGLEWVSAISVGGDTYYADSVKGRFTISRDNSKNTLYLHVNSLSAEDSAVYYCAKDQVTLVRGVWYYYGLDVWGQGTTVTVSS VL: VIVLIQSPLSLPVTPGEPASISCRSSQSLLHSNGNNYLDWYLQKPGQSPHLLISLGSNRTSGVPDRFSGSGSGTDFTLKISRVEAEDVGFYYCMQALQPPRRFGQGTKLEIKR
2. 29C12 (antibody, V domains shown, also called Ab-8; 29C12.1) VH: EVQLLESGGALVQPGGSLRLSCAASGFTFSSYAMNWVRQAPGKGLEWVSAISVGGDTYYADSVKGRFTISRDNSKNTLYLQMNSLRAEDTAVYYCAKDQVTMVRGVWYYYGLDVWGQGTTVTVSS VL: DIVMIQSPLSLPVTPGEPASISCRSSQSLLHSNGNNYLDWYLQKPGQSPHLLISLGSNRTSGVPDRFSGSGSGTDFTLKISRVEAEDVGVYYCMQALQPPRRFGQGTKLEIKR

Marked response:
259000
97300
